assay: NOMO-1 AML cell viability reduction, primary screen, STK33 inhibitor project, CellTiter-Glo luminescence (AID 2330); conditions: NOMO-1 AML viability, 72 h, concentration not given here
About 2,800 (7.6%) of roughly 37,000 compounds were called active. Another 1% or so got no clear call; they are omitted. Rule as the data show it: active = inhibition above about 80%; inconclusive = no clear call, values can overlap the other calls; inactive = below that. Many of the other results were omitted from the sample, so actives are more common in it than they were.
Classes used: TRUE = active, FALSE = inactive

1. C[C@@H]1CN([C@@H](C)CO)C(=O)c2cccc(NC(=O)c3ccncc3)c2O[C@H]1CN(C)S(=O)(=O)c1ccc(F)cc1; FALSE
2. N#C/C(=C\c1ccc(O)c(O)c1)C(=O)NCc1ccccc1; TRUE
3. N#C/C(=C\c1ccc(O)c(O)c1)C(N)=O; FALSE
4. Cc1ccc(S(=O)(=O)N(C)C[C@@H]2Oc3c(NC(=O)C4CCCCC4)cccc3C(=O)N([C@H](C)CO)C[C@H]2C)cc1; FALSE
5. C[C@H]1CN([C@@H](C)CO)C(=O)c2cccc(NS(=O)(=O)c3ccccc3)c2O[C@@H]1CN(C)S(=O)(=O)c1cn(C)cn1; FALSE

====

assay: NOMO-1 AML cell viability reduction, primary screen, STK33 inhibitor project, CellTiter-Glo luminescence (AID 2330); conditions: NOMO-1 AML viability, 72 h, concentration not given here
Hit rate of the full screen: of about 37,000 compounds, about 2,800 (7.6%) were called active. About 1% were inconclusive and are not listed. No stated cut-off is given here; in the data, active means inhibition above about 80%; inconclusive means no clear call, values can overlap the other calls; inactive means below that. The list comes from a sample in which actives are over-represented; it also holds close analogues and randomly drawn compounds.
Classes used: 1 for active, -1 for inactive

1) C[C@@H]1CN([C@H](C)CO)C(=O)Cc2cc(NS(=O)(=O)c3ccc(Cl)cc3)ccc2O[C@@H]1CN(C)S(=O)(=O)c1ccc(Cl)cc1; -1
2) CCN(CC)C(=O)c1ccc(O)c(OC)c1; -1
3) C[C@@H]1CN([C@H](C)CO)C(=O)Cc2cc(NS(=O)(=O)c3cccs3)ccc2O[C@@H]1CN(C)Cc1ccc(C(=O)O)cc1; -1
4) CC(C)NC(=O)N(C)C[C@H]1Oc2c(NS(C)(=O)=O)cccc2C(=O)N([C@@H](C)CO)C[C@H]1C; -1
5) C[C@@H]1CN([C@@H](C)CO)C(=O)c2cc(NS(=O)(=O)c3ccc(Cl)cc3)ccc2O[C@H]1CN(C)C(=O)Nc1ccc(C(F)(F)F)cc1; -1
6) COc1ccccc1NC(=O)CSc1nc2cc3ccccc3cc2[nH]1; 1
7) O=C(Nc1cccnc1)c1cc2c(s1)-c1ccccc1CC2; 1
8) C[C@H](CO)N1C[C@H](C)[C@H](CN(C)S(C)(=O)=O)Oc2ccc(NC(=O)Nc3ccc(F)cc3)cc2C1=O; -1
9) COc1ccccc1CCNC(=O)c1cnccn1; -1
10) S=c1nc2c(cnn2-c2ccccc2)c(Nc2ccccc2)[nH]1; -1
11) O=C(CS(=O)(=O)Cc1ccccc1)Nc1cccnc1; -1
12) COc1ccc(S(=O)(=O)Nc2ccc3c(c2)C(=O)N([C@H](C)CO)C[C@H](C)[C@H](CN(C)Cc2ccc(C(F)(F)F)cc2)O3)cc1; -1
13) C[C@H](CO)N1C[C@H](C)[C@H](CN(C)CC2CC2)Oc2ccc(NS(=O)(=O)c3ccccc3)cc2CC1=O; -1
14) C[C@@H]1CN([C@H](C)CO)C(=O)c2cc(NS(=O)(=O)c3cccs3)ccc2O[C@H]1CN(C)Cc1ccncc1; -1
15) Cn1c(Cc2csc(N)n2)nnc1SC/C=C/c1ccccc1; -1
16) C[C@H](CO)N1C[C@H](C)[C@H](CN(C)Cc2ccc(C(F)(F)F)cc2)Oc2ccc(NS(=O)(=O)c3ccc(Cl)cc3)cc2C1=O; -1
17) O=C(NCCN1CCCCC1)Nc1cccc(Cl)c1; -1
18) C[C@H](CO)N1C[C@H](C)[C@H](CN(C)C)Oc2c(NS(=O)(=O)c3ccc(Cl)cc3)cccc2C1=O; -1
19) COC(=O)COc1cccc(NC(=O)c2cc(OC)c(OC)c(OC)c2)c1; 1
20) Cc1ccc(S(=O)(=O)Nc2ccc3c(c2)C(=O)N([C@@H](C)CO)C[C@@H](C)[C@H](CN(C)Cc2ccc(C(F)(F)F)cc2)O3)cc1; 1
21) C[C@H]1CN([C@@H](C)CO)C(=O)Cc2cc(NS(=O)(=O)c3ccccc3)ccc2O[C@H]1CN(C)Cc1ccc(C(=O)Nc2ccccc2N)cc1; 1
22) COc1ccc(S(=O)(=O)Nc2ccc3c(c2)CC(=O)N([C@@H](C)CO)C[C@@H](C)[C@@H](CN(C)Cc2ccc(C(=O)Nc4ccccc4N)cc2)O3)cc1; 1
23) COc1ccccc1NC(=O)CSc1n[nH]c(C)n1; -1
24) NC(=O)CSc1nnc(-c2ccccc2F)n1-c1ccccc1; -1
25) C[C@@H]1CN([C@H](C)CO)C(=O)Cc2cc(NC(=O)Nc3ccc(F)cc3)ccc2O[C@@H]1CN(C)C(=O)Nc1ccc2c(c1)OCO2; -1
26) Cc1ccc(S(=O)(=O)N(C)C[C@H]2Oc3ccc(NS(=O)(=O)c4ccccc4)cc3CC(=O)N([C@@H](C)CO)C[C@H]2C)cc1; -1
27) COc1ccc(OC)c(NC(=O)CSc2nc(-c3ccccc3)cc(=O)[nH]2)c1; -1
28) CCn1c(=O)c2c(n3c(SCC(N)=O)nnc13)-c1ccccc1CC21CCCCC1; 1
29) C[C@@H]1CN([C@H](C)CO)C(=O)c2cc(NC(=O)Nc3ccc4c(c3)OCO4)ccc2O[C@@H]1CN(C)C(=O)Nc1ccc(F)cc1; -1
30) O=c1[nH]c(CSCCO)nc2c1C1(CCCCC1)Cc1ccccc1-2; -1
31) COc1cc(C2OC(c3ccc(O)c(OC)c3)C(C)(O)C2C)ccc1O (stereo not given); 1
32) COc1ccc(CN(C)C[C@H]2Oc3ccc(NS(=O)(=O)c4ccc(Cl)cc4)cc3CC(=O)N([C@@H](C)CO)C[C@H]2C)cc1; -1
33) Cc1ccc(Cl)cc1NC(=O)CN(c1cccc(Cl)c1C)S(C)(=O)=O; -1
34) COc1ccccc1NC(=O)c1ccc(OCC(=O)O)cc1; -1
35) Cc1ccc(NC(=O)COc2ccccc2C)c([N+](=O)[O-])c1; -1

====

Form field: inhibition (one value per entry).
assay: NOMO-1 AML cell viability reduction, primary screen, STK33 inhibitor project, CellTiter-Glo luminescence (AID 2330); conditions: NOMO-1 AML viability, 72 h, hits give high values, concentration not given here
Screen size: about 37,000 compounds; about 2,800 (7.6%) were called active. Roughly 1% stayed inconclusive and do not appear here. This excerpt belongs to a sample that is enriched for actives.
observable: inhibition (%)

1) COc1ccc(CN(C)C[C@@H]2Oc3ccc(NC(=O)Nc4cccc5ccccc45)cc3C(=O)N([C@H](C)CO)C[C@H]2C)cc1; -6.53
2) Cc1nnc(SCc2ccc(C(=O)c3ccc(Cl)cc3)o2)n1-c1ccccc1; -16.2
3) C[C@@H]1CN([C@@H](C)CO)C(=O)c2cccc(NS(=O)(=O)c3ccc(F)cc3)c2O[C@H]1CN(C)C(=O)NC1CCCCC1; 4.03
4) C[C@H]1CN([C@@H](C)CO)C(=O)c2cc(NC(=O)Nc3cccc4ccccc34)ccc2O[C@@H]1CN(C)C; -2.04
5) CC(C)(C)c1ccc(-c2[nH]nc(NC(=O)c3ccccc3Cl)c2Br)cc1; 123
6) COc1cc(NC(=O)COc2ccc(Br)cc2)ccc1NC(=O)c1ccccc1Cl; 13.7
7) CC(C)(C)c1ccc(OCC(=O)NCc2ccccn2)c(Br)c1; 43.9
8) CC(C)NC(=O)Nc1ccc2c(c1)C(=O)N([C@@H](C)CO)C[C@@H](C)[C@H](CN(C)Cc1ccc(-c3ccccc3)cc1)O2; 36.3

====

assay: NOMO-1 AML cell viability reduction, primary screen, STK33 inhibitor project, CellTiter-Glo luminescence (AID 2330); conditions: NOMO-1 AML viability, 72 h, hits give high values, concentration not given here
The whole screen tested about 37,000 compounds, of which about 2,800 (7.6%) were called active. Inconclusive results (about 1%) are left out. This is one part of a sample in which actives are shown more often than they occur.
inhibition strictly under 30% means rule met; at 30% or over means rule not met.

1) Cc1noc(C)c1NC(=O)Nc1ccc2c(c1)CC(=O)N([C@H](C)CO)C[C@@H](C)[C@@H](CN(C)Cc1ccc(C(F)(F)F)cc1)O2; rule met
2) C[C@@H]1CN([C@H](C)CO)C(=O)Cc2cc(NC(=O)Nc3cccc4ccccc34)ccc2O[C@@H]1CN(C)Cc1ccc(C(=O)O)cc1; rule met
3) CNC[C@H]1Oc2ccc(NS(=O)(=O)c3ccc(F)cc3)cc2CC(=O)N([C@H](C)CO)C[C@H]1C; rule met
4) C[C@H](CO)N1C[C@H](C)[C@H](CN(C)C(=O)Nc2ccc(C(F)(F)F)cc2)Oc2ccc(NC(=O)Nc3ccccc3)cc2C1=O; rule not met
5) C[C@@H]1CN([C@H](C)CO)C(=O)Cc2cc(NC(=O)Cc3cn(C)c4ccccc34)ccc2O[C@@H]1CN(C)Cc1ccc(C(F)(F)F)cc1; rule not met
6) Nc1nnc(SCC(=O)Nc2ccc(Cl)cc2O)s1; rule met
7) COc1ccc(NC(=O)Nc2ccc3c(c2)CC(=O)N([C@H](C)CO)C[C@H](C)[C@H](CN(C)Cc2ccncc2)O3)cc1; rule met
8) C[C@@H]1CN([C@@H](C)CO)C(=O)c2cccc(NC(=O)Nc3ccc(F)cc3)c2O[C@H]1CN(C)C(=O)Nc1ccc(F)cc1; rule met
9) C[C@H]1CN([C@@H](C)CO)C(=O)Cc2cc(NC(=O)Cc3cn(C)c4ccccc34)ccc2O[C@@H]1CN(C)Cc1ccccc1; rule not met
10) C[C@@H]1CN([C@@H](C)CO)C(=O)c2cccc(NC(=O)Nc3ccc(F)cc3)c2O[C@@H]1CN(C)C(=O)Nc1ccccc1; rule not met
11) C[C@H]1CN([C@@H](C)CO)C(=O)c2cccc(NC(=O)Nc3ccc(C(F)(F)F)cc3)c2O[C@@H]1CN(C)Cc1ccccc1; rule not met
12) Cc1noc(C)c1NC(=O)Nc1cccc2c1O[C@@H](CN(C)CC1CCCCC1)[C@H](C)CN([C@@H](C)CO)C2=O; rule met
13) C[C@H](CO)N1C[C@H](C)[C@H](CN(C)C(=O)Nc2ccccc2)Oc2c(NC(=O)Nc3ccc(C(F)(F)F)cc3)cccc2C1=O; rule not met
14) COc1ccc(S(=O)(=O)Nc2ccc3c(c2)C(=O)N([C@@H](C)CO)C[C@@H](C)[C@H](CN(C)S(=O)(=O)c2cccs2)O3)cc1; rule met
15) COc1ccc(CN(C)C[C@H]2Oc3c(NC(=O)Nc4ccccc4)cccc3C(=O)N([C@@H](C)CO)C[C@@H]2C)cc1; rule not met
